Target: BTK (Mus musculus, UniProt P35991)
Sequence (P35991 whole entry): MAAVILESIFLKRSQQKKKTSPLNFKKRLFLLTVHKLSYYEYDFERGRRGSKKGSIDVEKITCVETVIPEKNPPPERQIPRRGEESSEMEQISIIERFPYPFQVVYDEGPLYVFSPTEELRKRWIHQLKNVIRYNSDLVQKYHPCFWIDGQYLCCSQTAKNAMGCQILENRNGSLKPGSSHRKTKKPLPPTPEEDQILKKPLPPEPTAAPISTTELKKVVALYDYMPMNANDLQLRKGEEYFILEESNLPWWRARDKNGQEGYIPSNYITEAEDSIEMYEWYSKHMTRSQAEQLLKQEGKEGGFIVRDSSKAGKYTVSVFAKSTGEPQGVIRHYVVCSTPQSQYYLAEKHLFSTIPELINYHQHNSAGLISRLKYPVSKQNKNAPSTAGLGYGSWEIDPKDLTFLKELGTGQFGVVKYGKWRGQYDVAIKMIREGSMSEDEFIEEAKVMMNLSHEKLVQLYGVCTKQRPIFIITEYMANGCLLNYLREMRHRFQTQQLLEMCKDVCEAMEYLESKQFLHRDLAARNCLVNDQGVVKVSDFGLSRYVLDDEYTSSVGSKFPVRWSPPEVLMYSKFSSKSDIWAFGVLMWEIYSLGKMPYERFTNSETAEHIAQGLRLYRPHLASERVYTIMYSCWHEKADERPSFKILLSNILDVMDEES
measure_name: IC50

Item: `Cn1cc(Nc2nccc(-c3ccc4c(c3)CN(C3COC3)CC[C@H]4NC(=O)c3cn(C(C)(C)C)nn3)n2)cn1` | System: BTK (Mus musculus, UniProt P35991) | IC50: 3.1 nM

====

Tested on: CD19+ B cells from human PBMC
Test: Anti-IgD-induced B-cell activation
Format: cell-based
Conditions: read-out: IC50, CD69 induction on B cells
measure_name: pIC50
Convention used: pIC50 is expressed as -log10 of the molar concentration.

The reported value for Cn1cc(Nc2nccc(-c3ccc4c(c3)CN(C3COC3)CC[C@H]4NC(=O)c3cn(C(C)(C)C)nn3)n2)cn1 [BIIB091] in terms of pIC50 is 8.27

The origin of these recorded values is paper PMC8204096.
